Biological target: TLK2 (human) (UniProt Q86UE8)
Sequence (Q86UE8 whole entry, looked up): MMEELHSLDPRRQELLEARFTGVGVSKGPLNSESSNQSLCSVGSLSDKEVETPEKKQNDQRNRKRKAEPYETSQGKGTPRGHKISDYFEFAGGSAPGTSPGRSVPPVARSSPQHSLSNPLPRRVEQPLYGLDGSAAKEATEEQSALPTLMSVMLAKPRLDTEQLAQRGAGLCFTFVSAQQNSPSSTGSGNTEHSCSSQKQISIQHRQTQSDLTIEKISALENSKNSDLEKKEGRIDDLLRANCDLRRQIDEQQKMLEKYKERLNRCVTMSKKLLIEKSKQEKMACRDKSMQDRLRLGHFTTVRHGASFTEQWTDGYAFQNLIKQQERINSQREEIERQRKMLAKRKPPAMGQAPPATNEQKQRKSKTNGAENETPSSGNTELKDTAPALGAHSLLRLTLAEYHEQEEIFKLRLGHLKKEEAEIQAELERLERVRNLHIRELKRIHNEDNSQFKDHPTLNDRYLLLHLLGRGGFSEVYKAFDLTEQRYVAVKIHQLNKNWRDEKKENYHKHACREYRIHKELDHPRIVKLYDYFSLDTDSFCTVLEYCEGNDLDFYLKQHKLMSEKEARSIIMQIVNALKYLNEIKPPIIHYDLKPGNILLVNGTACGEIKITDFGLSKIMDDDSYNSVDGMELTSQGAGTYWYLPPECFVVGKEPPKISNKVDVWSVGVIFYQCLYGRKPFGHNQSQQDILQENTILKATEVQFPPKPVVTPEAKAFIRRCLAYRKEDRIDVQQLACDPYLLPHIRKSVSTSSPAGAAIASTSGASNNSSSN
Assay: radiometric filter-binding kinase assay, Kinase HotSpot
Conditions: compound 0.5 µM; ATP 10 µM
metric name: residual activity (%)
Provide the reading as a plain figure in %.

Dear colleague, I am looking for the recorded residual activity of the following compound: CCCC(=O)Oc1ccc2[nH]c(C(=O)c3cc4ccccc4[nH]3)cc2c1
97.1

Item under review: Nc1ncnc2c1c(-c1ccc(Oc3ccccc3)cc1)cn2C1CCCC1 . Reported residual activity?
112

Name the recorded residual activity for Cc1cc(C)c(/C=C2\C(=O)Nc3ccccc32)[nH]1 .
98.5

Please look up its residual activity: CCN(CC)CCNC(=O)c1c(C)[nH]c(/C=C2\C(=O)Nc3ccc(F)cc32)c1C
63.3

What value of residual activity has been recorded for this entry: CC(C)N(CCC(=O)c1ccc2ccccc2c1)Cc1ccccc1
104

# get_value(readout='residual activity', item= CCC(=O)Nc1ccc2ncnc(Nc3cccc(Br)c3)c2c1 )
104

Suppose we examine the compound COc1cc2ncnc(Nc3cccc(Cl)c3)c2cc1OC ; what residual activity value has been reported?
93.9

Could you share which residual activity value was measured for O=C1NC(=O)C(c2cn(CCCn3ccnc3)c3ccccc23)=C1Nc1ccccc1 ?
74.1

Would you mind telling me what residual activity value was observed for Oc1cccc(-c2nc(N3CCOCC3)c3oc4ncccc4c3n2)c1 ?
102

###

Target: RPS6KA5 KD2 (human) (UniProt O75582)
Sequence (O75582 whole entry, looked up): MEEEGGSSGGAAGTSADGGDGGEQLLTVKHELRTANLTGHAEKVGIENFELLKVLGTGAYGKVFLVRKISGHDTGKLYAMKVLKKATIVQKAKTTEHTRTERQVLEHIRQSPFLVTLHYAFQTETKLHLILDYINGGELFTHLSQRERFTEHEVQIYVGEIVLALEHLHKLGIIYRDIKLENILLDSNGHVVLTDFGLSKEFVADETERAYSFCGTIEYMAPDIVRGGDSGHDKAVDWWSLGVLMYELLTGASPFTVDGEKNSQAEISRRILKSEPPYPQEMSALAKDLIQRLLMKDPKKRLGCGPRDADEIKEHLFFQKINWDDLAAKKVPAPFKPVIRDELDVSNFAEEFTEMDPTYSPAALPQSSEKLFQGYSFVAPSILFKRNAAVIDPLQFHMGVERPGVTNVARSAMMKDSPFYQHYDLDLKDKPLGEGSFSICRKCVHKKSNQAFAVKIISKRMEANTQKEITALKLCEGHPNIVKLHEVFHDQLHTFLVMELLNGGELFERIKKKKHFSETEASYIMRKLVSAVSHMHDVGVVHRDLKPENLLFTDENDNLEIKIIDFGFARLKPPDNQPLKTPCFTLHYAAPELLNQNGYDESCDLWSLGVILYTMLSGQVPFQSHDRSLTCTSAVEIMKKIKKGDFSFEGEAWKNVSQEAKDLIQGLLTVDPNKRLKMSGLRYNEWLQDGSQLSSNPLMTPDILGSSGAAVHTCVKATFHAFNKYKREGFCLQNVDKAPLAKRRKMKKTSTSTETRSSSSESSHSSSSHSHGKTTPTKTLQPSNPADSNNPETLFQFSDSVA
Test: radiometric filter-binding kinase assay, Kinase HotSpot
Conditions: compound 0.5 µM; ATP 10 µM
metric name: residual activity (%)
Report the value in % with no unit label.

Entry O=C1NC(=O)c2c1c1c3ccccc3n3c1c1c2c2ccccc2n1C1CCC3O1 : reported residual activity = ?
9.88

Data request, read-out residual activity, for CNC(=O)c1cc(Oc2ccc(NC(=O)Nc3ccc(Cl)c(C(F)(F)F)c3)cc2)ccn1
102

Entry Oc1cccc(-c2nc(N3CCOCC3)c3oc4ncccc4c3n2)c1 has what residual activity?
86.5

Which residual activity value is on record for N#CC(C#N)=C(N)/C(C#N)=C/c1ccc(O)cc1 ?
96.7

Quick one: residual activity for c1ccc(-c2n[nH]c3c2oc2ccccc23)cc1 ?
94.9

Tell me the measured residual activity of CC(=O)c1ccc(N2CCOCC2)cc1O , please.
105

###

So I've got a bunch of compounds here, and I need their residual activity values.
Target: ERBB4 (human) (UniProt Q15303)
Sequence (Q15303 whole entry, looked up): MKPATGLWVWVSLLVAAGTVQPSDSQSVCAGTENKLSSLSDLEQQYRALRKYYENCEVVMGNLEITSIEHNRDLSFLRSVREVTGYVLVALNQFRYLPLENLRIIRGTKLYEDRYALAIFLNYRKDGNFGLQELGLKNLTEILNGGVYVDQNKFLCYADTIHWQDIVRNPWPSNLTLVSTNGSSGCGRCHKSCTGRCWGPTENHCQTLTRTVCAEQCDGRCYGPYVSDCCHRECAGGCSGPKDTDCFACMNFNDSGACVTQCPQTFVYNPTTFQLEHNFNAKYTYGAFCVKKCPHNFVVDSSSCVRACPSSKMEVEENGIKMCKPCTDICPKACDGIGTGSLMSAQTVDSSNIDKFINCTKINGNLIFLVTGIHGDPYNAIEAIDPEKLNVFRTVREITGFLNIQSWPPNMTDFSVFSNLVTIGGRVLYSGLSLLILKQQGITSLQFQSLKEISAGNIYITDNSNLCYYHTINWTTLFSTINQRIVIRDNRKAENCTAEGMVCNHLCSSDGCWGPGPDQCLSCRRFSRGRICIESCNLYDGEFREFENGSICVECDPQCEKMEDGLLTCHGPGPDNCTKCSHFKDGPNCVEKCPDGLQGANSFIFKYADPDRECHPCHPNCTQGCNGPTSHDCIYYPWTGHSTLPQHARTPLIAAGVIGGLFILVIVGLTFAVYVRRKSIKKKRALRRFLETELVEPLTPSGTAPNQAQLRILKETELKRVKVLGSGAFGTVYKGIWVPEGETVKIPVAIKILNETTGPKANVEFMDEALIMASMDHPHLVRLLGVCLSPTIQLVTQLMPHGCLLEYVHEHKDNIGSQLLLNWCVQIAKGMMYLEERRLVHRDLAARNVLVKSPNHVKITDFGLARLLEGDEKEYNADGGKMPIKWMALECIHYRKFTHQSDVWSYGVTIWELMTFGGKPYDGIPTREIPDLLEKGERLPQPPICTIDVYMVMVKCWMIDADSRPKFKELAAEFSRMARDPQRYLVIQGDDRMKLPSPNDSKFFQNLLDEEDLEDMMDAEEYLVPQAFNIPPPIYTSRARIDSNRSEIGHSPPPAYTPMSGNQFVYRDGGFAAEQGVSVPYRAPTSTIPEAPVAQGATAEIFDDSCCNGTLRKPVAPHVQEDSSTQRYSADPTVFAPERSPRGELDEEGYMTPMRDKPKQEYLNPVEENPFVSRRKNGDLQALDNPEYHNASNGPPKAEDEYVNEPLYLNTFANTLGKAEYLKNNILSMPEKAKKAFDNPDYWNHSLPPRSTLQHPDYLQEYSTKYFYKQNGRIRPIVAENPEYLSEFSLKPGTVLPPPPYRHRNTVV
Assay: radiometric filter-binding kinase assay, Kinase HotSpot
Conditions: compound 0.5 µM; ATP 10 µM
# number only, unit % dropped from output

For the compound CCN(CC)C(=O)c1ccc(Nc2nc(OCC3CCCCC3)c3nc[nH]c3n2)cc1 , what residual activity is on record?
91

Which measured residual activity value corresponds to CCC(=O)Nc1ccc2ncnc(Nc3cccc(Br)c3)c2c1 ?
82.3

Name the reported residual activity value associated with the compound Nc1cccc(-c2cc3c(Oc4cccc(O)c4)ncnc3[nH]2)c1
75.8

What does the data say about its residual activity? Entry: O=C1NC(=O)C(c2cn(CCCn3ccnc3)c3ccccc23)=C1Nc1ccccc1
59.6

State the recorded residual activity for this entry: COc1cc2ncnc(Nc3cccc(Cl)c3)c2cc1OC
35.5

Which residual activity value is on record for N#C/C(=C(/N)Sc1ccc(N)cc1)c1ccccc1C(F)(F)F ?
89.9

###

Target: UniProtKB Q16584
Sequence (Q16584 whole entry, looked up): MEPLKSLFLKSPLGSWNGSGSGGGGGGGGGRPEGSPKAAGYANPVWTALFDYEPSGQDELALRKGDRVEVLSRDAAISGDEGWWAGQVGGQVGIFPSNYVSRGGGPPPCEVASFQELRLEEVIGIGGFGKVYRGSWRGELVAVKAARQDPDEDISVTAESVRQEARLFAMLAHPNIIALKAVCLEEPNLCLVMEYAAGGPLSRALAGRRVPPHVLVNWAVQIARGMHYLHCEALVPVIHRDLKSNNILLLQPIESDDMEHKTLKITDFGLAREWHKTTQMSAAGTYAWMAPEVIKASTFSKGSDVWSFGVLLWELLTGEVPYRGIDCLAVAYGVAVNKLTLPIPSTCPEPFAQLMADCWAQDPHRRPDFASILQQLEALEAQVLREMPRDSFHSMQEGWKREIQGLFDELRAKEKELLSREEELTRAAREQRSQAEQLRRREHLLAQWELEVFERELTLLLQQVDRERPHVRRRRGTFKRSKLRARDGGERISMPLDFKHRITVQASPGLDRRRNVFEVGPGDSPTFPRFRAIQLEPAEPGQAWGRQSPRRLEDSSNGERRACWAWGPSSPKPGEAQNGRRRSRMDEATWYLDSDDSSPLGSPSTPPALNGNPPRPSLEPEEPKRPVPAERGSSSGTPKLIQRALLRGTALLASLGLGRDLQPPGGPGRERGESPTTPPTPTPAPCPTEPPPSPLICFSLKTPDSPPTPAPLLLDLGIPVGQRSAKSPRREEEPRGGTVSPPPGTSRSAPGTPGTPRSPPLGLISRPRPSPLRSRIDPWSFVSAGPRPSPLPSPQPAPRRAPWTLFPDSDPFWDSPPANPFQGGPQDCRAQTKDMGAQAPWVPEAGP
Test: radiometric filter-binding kinase assay, Kinase HotSpot
Conditions: compound 0.5 µM; ATP 10 µM
metric name: residual activity (%)
Enter your answer as a number in %; do not include the unit.

What does the data say about its residual activity? Entry: O=C(Nc1cccc(Nc2nccc(Nc3cccc(C(F)(F)F)c3)n2)c1)C1CC1
89.5

residual activity lookup needed for COc1ccc(COc2ccc(Cc3cnc(N)nc3N)cc2OC)cc1 , thanks.
101

Please report the recorded residual activity for Cc1ccc(S(=O)(=O)/C=C/C#N)cc1 .
98.2

Given O=C1NC(=O)C(c2cn(CCCn3ccnc3)c3ccccc23)=C1Nc1ccccc1 , state its recorded residual activity.
13.3

Reported residual activity for CC(=O)c1ccc(N2CCOCC2)cc1O : what is it?
94.8

Endpoint output: residual activity of CCCC(=O)Oc1ccc2[nH]c(C(=O)c3cc4ccccc4[nH]3)cc2c1 . Value?
98.7

Which measured residual activity value corresponds to CC#CC(=O)Nc1cc2c(Nc3ccc(F)c(Cl)c3)ncnc2cn1 ?
99.3

Need residual activity, item c1ccc(-c2n[nH]c3c2oc2ccccc23)cc1
91.8

// query residual activity value for entry CNc1cc2c(Nc3cccc(Br)c3)ncnc2cn1
96.9

Could you tell me which residual activity is on file for COc1ccc2c(c[n+](C)c3c4cc5c(cc4ccc23)OCO5)c1OC ?
95

Sample CCN(CC)CCNC(=O)c1c(C)[nH]c(/C=C2\C(=O)Nc3ccc(F)cc32)c1C — what was its residual activity?
68.4

Need residual activity, item O=c1cc(N2CCOCC2)oc2c1ccc1ccccc12
99.2

Item O=C1Nc2ccc(Cl)cc2/C1=C/c1cc(Cl)c(O)c(Cl)c1 has what recorded residual activity?
60.4

Which residual activity is listed for Nc1cccc(-c2cc3c(Oc4cccc(O)c4)ncnc3[nH]2)c1 ?
52.4

Consider the compound CCN(CC)CCNC(=O)c1c(C)[nH]c(/C=C2\C(=O)Nc3ccc(Cl)cc32)c1C and give its measured residual activity.
21

So what's the measured residual activity for this one? CC(C)N(CCC(=O)c1ccc2ccccc2c1)Cc1ccccc1
97

# input compound: CC[n+]1c(/C=C/N(C)c2ccccc2)n(-c2ccccc2)c2ccc(-c3nc4ccccc4s3)cc21 ; wanted: its residual activity
102

Can you look up the measured residual activity of O=C1NC(=O)/C(=C/c2ccc3c(c2)OC(F)(F)O3)S1 for me?
97.8

Which residual activity value belongs to CNC(=O)c1cc(Oc2ccc(NC(=O)Nc3ccc(Cl)c(C(F)(F)F)c3)cc2)ccn1 ?
98.3

residual activity for Cc1[nH]c(/C=C2\C(=O)Nc3ccc(S(=O)(=O)N(C)c4cccc(Cl)c4)cc32)c(C)c1C(=O)N1CCN(C)CC1 ?
79.1

Report residual activity for Cc1ccc(NC2=CC(=O)c3sc(C)nc3C2=O)cc1 please.
101

Which residual activity is listed for O=S(=O)(c1cccc2cnccc12)N1CCCNCC1 ?
99.7

Fill in the blank: the reported residual activity of Nc1ccc2ncnc(NCCc3ccc(Oc4ccccc4)cc3)c2c1 is ____.
103

What residual activity value was documented for this compound, CO[C@H]1CC2CC[C@@H](C)[C@@](O)(O2)C(=O)C(=O)N2CCCC[C@H]2C(=O)OC([C@H](C)C[C@@H]2CC[C@@H](O)[C@H](OC)C2)CC(=O)[C@H](C)/C=C(\C)[C@@H](O)[C@@H](OC)C(=O)[C@H](C)C[C@H](C)/C=C/C=C/C=C/1C (some centres undefined) ?
98.5

Entry under review: COc1cc2ncnc(Nc3cccc(Cl)c3)c2cc1OC . Reported residual activity?
84.1

I have this compound here, CCOC(=O)c1c(C)[nH]c(/C=C2\C(=O)Nc3ccccc32)c1C , and I need its recorded residual activity.
47

What value of residual activity has been reported for the following compound? O=C1NC(=O)c2c1c1c3ccccc3n3c1c1c2c2ccccc2n1C1CCC3O1
1.37

Would you mind telling me what residual activity value was observed for CCC(=O)Nc1ccc2ncnc(Nc3cccc(Br)c3)c2c1 ?
97.1

What does the record list as residual activity for c1ccc(-c2n[nH]cc2-c2ccnc3ccccc23)nc1 ?
96.5

###

Biological target: MARK3 (human) (UniProt P27448)
Sequence (P27448 whole entry, looked up): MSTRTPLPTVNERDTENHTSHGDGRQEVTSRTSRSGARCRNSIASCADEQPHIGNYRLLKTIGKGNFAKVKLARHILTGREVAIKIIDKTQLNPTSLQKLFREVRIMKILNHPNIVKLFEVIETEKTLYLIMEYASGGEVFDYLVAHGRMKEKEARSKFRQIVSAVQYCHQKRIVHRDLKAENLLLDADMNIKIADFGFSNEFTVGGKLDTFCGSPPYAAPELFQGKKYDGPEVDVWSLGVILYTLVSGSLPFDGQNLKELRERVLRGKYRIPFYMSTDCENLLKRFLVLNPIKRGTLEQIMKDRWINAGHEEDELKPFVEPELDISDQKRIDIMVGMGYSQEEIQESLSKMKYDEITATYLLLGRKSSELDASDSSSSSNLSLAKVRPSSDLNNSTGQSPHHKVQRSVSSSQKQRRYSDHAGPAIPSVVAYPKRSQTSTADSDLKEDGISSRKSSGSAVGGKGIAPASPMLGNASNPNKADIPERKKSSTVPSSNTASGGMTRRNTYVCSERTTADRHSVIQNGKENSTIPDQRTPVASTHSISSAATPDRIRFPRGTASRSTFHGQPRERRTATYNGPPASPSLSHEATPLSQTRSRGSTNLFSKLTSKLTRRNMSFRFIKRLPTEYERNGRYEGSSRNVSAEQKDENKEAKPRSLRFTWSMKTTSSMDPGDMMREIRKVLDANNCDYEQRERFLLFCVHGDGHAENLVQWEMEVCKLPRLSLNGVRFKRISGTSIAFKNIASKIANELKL
Assay: radiometric filter-binding kinase assay, Kinase HotSpot
Conditions: compound 0.5 µM; ATP 10 µM
metric name: residual activity (%)
Note: unit % is implicit; provide only the numeric part.

Request the reported residual activity associated with O=C1NC(=O)c2c1c1c3ccccc3n3c1c1c2c2ccccc2n1C1CCC3O1
8.53

Name the reported residual activity value associated with the compound CCN(CC)CCNC(=O)c1c(C)[nH]c(/C=C2\C(=O)Nc3ccc(Cl)cc32)c1C
7.86

Any idea what residual activity was measured for O=c1cc(N2CCOCC2)oc2c1ccc1ccccc12 ?
110

Could you tell me which residual activity is on file for CCC(=O)Nc1ccc2ncnc(Nc3cccc(Br)c3)c2c1 ?
86.1

Return reported residual activity; argument: COc1ccc2c(c[n+](C)c3c4cc5c(cc4ccc23)OCO5)c1OC
98.7

Look up residual activity for this compound: N#C/C(=C(/N)Sc1ccc(N)cc1)c1ccccc1C(F)(F)F
107

For the compound Nc1ncnc2c1c(-c1ccc(Oc3ccccc3)cc1)cn2C1CCCC1 , what residual activity is on record?
89.8

# query: residual activity of entry Oc1cccc(-c2nc(N3CCOCC3)c3oc4ncccc4c3n2)c1
97.4

If you can, please state the reported residual activity value of O=C1NC(=O)/C(=C/c2ccc3c(c2)OC(F)(F)O3)S1 .
92.3

Value lookup for residual activity; key = CCCC(=O)Oc1ccc2[nH]c(C(=O)c3cc4ccccc4[nH]3)cc2c1
92.1
